target: OAT1 (Homo sapiens); construct: host or cells: HEK293/OAT1 (hygromycin B selection); test: Inhibition of 6-carboxyfluorescein uptake in HEK293/OAT1 cells; type: cell-based; conditions: ratio of OAT1 IC50 to hURAT1 IC50 (selectivity)
Sequence (Q4U2R8 whole entry, species assumed): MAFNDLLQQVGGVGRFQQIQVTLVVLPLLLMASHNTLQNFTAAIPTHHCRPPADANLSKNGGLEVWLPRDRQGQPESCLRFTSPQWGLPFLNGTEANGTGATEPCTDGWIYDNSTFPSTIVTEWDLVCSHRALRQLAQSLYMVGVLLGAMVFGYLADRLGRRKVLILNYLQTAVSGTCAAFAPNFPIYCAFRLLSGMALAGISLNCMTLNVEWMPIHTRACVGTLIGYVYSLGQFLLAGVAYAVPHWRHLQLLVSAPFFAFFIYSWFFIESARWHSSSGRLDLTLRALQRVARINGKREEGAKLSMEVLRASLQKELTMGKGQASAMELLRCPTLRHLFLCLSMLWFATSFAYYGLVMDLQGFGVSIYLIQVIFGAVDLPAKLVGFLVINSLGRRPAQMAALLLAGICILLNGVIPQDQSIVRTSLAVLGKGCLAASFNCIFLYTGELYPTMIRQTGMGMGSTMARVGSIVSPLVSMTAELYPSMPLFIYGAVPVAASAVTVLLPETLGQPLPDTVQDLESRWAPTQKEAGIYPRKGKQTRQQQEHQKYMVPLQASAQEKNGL
Lab note: compare IC50, OAT1/IC50, hURAT1 with 5, writing Met if less and Not met if equal or more.

Take the compound CCc1nc2ncc(F)cn2c1C(=O)c1cc(Br)c(O)c(C#N)c1 and say whether its IC50, OAT1/IC50, hURAT1 is less than 5.
Met

Try this compound next: CCc1nc2ncccn2c1C(=O)c1cc(Br)c(O)c(C(F)(F)F)c1
Not met

Try this compound next: CCc1nc2ncc(Br)cn2c1C(=O)c1cc(Br)c(O)c(Br)c1
Not met

Try this compound next: CCc1nc2cc(Cl)ncn2c1C(=O)c1cc(Br)c(O)c(Br)c1
Met
